procedure.text: Stability test in mouse liver microsomes
Assay type: in vitro ADME, CD-1 mice
condition.notes: CD-1, pH 7.4; mouse liver microsomes 0.5 mg/mL, 1.0 μM substrate; read-out: MLM 0.5 CLint(liver)
quantity.name: log10 of CLint scaled at 1 μM (log10 of the value in L/h/kg)
All values: log10 CLint scaled at 1 μM [L/h/kg].

>>> experimental_value("CS(=O)(=O)Nc1ccc(C(=O)Nc2cn3ccnc3c(N3CCC(F)(F)CC3)n2)c(N2CCC3(CC2)CC3)c1 [Compound 10]")
1.04
>>> experimental_value("O=C(Nc1cc2ccsc2c(N2CCC(F)(F)CC2)n1)c1ccc(NS(=O)(=O)CCO)cc1N1CCC2(CC1)CC2 [Compound 15]")
0.48
>>> experimental_value("O=C(Nc1cn2c(F)cnc2c(N2CCC(F)(F)CC2)n1)c1ccc(NS(=O)(=O)CCO)cc1N1CCC2(CC1)CC2 [Compound 34]")
-0.07
>>> experimental_value("CS(=O)(=O)Nc1ccc(C(=O)Nc2cn3ccnc3c(N3CCC(F)(F)CC3)n2)c(N2CC3CCC(C3)C2)c1 [Compound 19]")
0.50

compound O=C(Nc1cn2ccnc2c(N2CCC(F)(F)CC2)n1)c1ccc(NS(=O)(=O)CCO)cc1N1CCC2(CC1)CC2 [Compound 8] , log10 of CLint scaled at 1 μM observed: 1.12

compound CS(=O)(=O)Nc1ccc(C(=O)Nc2cc3cc[nH]c3c(N3CCC(F)(F)CC3)n2)c(N2CCC3(CC2)CC3)c1 [Compound 47] , log10 of CLint scaled at 1 μM observed: -0.86

compound O=C(Nc1cc2c(c(N3CCC(F)(F)CC3)n1)COC2)c1ccc(NS(=O)(=O)CCO)cc1N1CCC2(CC1)CC2 [Compound 14] , log10 of CLint scaled at 1 μM observed: 0.51

====

procedure.text: Stability test in mouse liver microsomes
Assay type: in vitro ADME, CD-1 mice
condition.notes: CD-1, pH 7.4; mouse liver microsomes 0.5 mg/mL, 1.0 μM substrate; read-out: MLM 0.5 T½
quantity.name: half-life at 1 μM

Below are worked cases with known answers.
>>> experimental_value("O=C(Nc1cc2ccsc2c(N2CCC(F)(F)CC2)n1)c1ccc(NS(=O)(=O)CCO)cc1N1CCC2(CC1)CC2")
"1.81 h"
>>> experimental_value("O=C(Nc1cc2cccnc2c(N2CCC(F)(F)CC2)n1)c1ccc(NS(=O)(=O)CCO)cc1N1CCC2(CC1)CC2")
"> 2.42 h"
>>> experimental_value("O=C(Nc1cn2c(F)cnc2c(N2CCC(F)(F)CC2)n1)c1ccc(NS(=O)(=O)CCO)cc1N1CCC2(CC1)CC2")
"6.34 h"
>>> experimental_value("O=C(Nc1cn2ccnc2c(N2CCC(F)(F)CC2)n1)c1ccc(NS(=O)(=O)CCO)cc1N1CCC2(CC1)CC2")
"0.418 h"

molecule `O=C(Nc1cn2ncnc2c(N2CCC(F)(F)CC2)n1)c1ccc(NS(=O)(=O)CCO)cc1N1CCC2(CC1)CC2` , half-life at 1 μM observed: > 2.42 h

molecule `CS(=O)(=O)Nc1ccc(C(=O)Nc2cn3ccnc3c(N3CCC(F)(F)CC3)n2)c(N2CCC3(CC2)CC3)c1` , half-life at 1 μM observed: 0.502 h

====

Known AUC of a selection of molecules
procedure.text: Pharmacokinetic test in mice
Format: in vivo
condition.notes: mouse, plasma, 30 mg/kg; BALB/c mice, PO @30mpk
Give your result in µM·h as a bare value.

>>> experimental_value("O=C(Nc1cc2cccnc2c(N2CCC(F)(F)CC2)n1)c1ccc(NS(=O)(=O)CCO)cc1N1CCC2(CC1)CC2 [Compound 21]")
207

molecule O=C(Nc1cc2nccnc2c(N2CCC(F)(F)CC2)n1)c1ccc(NS(=O)(=O)CCO)cc1N1CC2CCC(C2)C1 [Compound 73] , AUC observed: 69.1

molecule O=C(Nc1cc2cc[nH]c2c(N2CCC(F)(F)CC2)n1)c1ccc(NS(=O)(=O)CCO)cc1N1CCC2(CC1)CC2 [Compound 22] , AUC observed: 79.8

molecule CS(=O)(=O)Nc1ccc(C(=O)Nc2cn3ncnc3c(N3CCC(F)(F)CC3)n2)c(N2CCC3(CC2)CC3)c1 [Compound 57] , AUC observed: 154

molecule CS(=O)(=O)Nc1ccc(C(=O)Nc2cc3cn[nH]c3c(N3CCC(F)(F)CC3)n2)c(N2CC3CCC(C3)C2)c1 [Compound 69] , AUC observed: 221

molecule CS(=O)(=O)Nc1ccc(C(=O)Nc2cc3cccnc3c(N3CCC(F)(F)CC3)n2)c(N2CC3CCC(C3)C2)c1 [Compound 33] , AUC observed: 126

molecule CS(=O)(=O)Nc1ccc(C(=O)Nc2cn3ncnc3c(N3CCC(F)(F)CC3)n2)c(N2CC3CCC(C3)C2)c1 [Compound 53] , AUC observed: 78.3

molecule CS(=O)(=O)Nc1ccc(C(=O)Nc2cn3c(F)cnc3c(N3CCC(F)(F)CC3)n2)c(N2CC3CCC(C3)C2)c1 [Compound 52] , AUC observed: 269

molecule Cn1ncc2cc(NC(=O)c3ccc(NS(=O)(=O)CCO)cc3N3CC4CCC(C4)C3)nc(N3CCC(F)(F)CC3)c21 [Compound 55] , AUC observed: 380

====

tgt: KIF18A (Homo sapiens (Human), UniProt Q8NI77)
Sequence (Q8NI77 1-467): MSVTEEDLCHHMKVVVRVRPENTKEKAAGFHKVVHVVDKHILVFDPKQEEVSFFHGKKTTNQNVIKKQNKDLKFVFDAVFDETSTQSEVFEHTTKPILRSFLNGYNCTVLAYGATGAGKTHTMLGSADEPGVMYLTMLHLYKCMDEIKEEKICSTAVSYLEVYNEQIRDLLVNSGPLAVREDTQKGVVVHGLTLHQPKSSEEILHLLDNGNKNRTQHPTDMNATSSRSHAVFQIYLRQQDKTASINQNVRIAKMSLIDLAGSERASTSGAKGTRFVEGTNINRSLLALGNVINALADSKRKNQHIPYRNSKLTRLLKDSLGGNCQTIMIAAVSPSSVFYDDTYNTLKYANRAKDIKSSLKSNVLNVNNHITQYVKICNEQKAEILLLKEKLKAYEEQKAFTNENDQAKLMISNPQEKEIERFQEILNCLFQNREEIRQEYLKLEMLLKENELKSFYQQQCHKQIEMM
procedure.text: KIF18A enzymatic activity inhibition, ADP-Glo kit
Assay type: biochemical
condition.notes: 4 nM KIF18A, 30 μM ATP
Known pIC50 of a selection of molecules
Worth noting: pIC50 values are minus log10 of concentrations stated in mol/L.

>>> experimental_value("O=C(Nc1cc2cc[nH]c2c(N2CCC(F)(F)CC2)n1)c1ccc(NS(=O)(=O)CCO)cc1N1CCC2(CC1)CC2")
7.58
>>> experimental_value("O=C(Nc1cn2ccnc2c(N2CCCCC2)n1)c1ccc(NS(=O)(=O)CCO)cc1N1CCC2(CC1)CC2")
7.99
>>> experimental_value("O=C(Nc1cn2ccnc2c(N2CCC(F)(F)CC2)n1)c1ncc(NS(=O)(=O)CCO)cc1N1CCC2(CC1)CC2")
7.95

Turning now to a further molecule:
molecule `O=C(Nc1cc2nccnc2c(N2CCC(F)(F)CC2)n1)c1ccc(NS(=O)(=O)CCO)cc1N1CC2CCC(C2)C1` , pIC50 observed: 7.42

====

Known CLint scaled at 1 μM of a selection of compounds
procedure.text: Stability test in human liver microsomes
Type: in vitro ADME, humans
condition.notes: pH 7.4; human liver microsomes 0.5 mg/mL, 1.0 μM substrate; read-out: HLM 0.5 CLint(liver)

>>> experimental_value("O=C(Nc1cc2ccccc2c(N2CCC(F)(F)CC2)n1)c1ccc(NS(=O)(=O)CCO)cc1N1CCC2(CC1)CC2 [Compound 6]")
"< 8.6 mL/min/kg"
>>> experimental_value("O=C(Nc1cc2ccsc2c(N2CCC(F)(F)CC2)n1)c1ccc(NS(=O)(=O)CCO)cc1N1CCC2(CC1)CC2 [Compound 15]")
"< 8.6 mL/min/kg"

compound O=C(Nc1cn2ncnc2c(N2CCC(F)(F)CC2)n1)c1ccc(NS(=O)(=O)CCO)cc1N1CCC2(CC1)CC2 [Compound 23] , CLint scaled at 1 μM observed: < 8.6 mL/min/kg

====

procedure.text: Stability test in rat liver microsomes
Type: in vitro ADME, Sprague-Dawley rats
condition.notes: Sprague-Dawley, pH 7.4; rat liver microsomes 0.5 mg/mL, 1.0 μM substrate; read-out: RLM 0.5 CLint(liver)
quantity.name: CLint scaled at 1 μM

Below are worked cases with known answers.
>>> experimental_value("O=C(Nc1cn2ccnc2c(N2CCC(F)(F)CC2)n1)c1ccc(NS(=O)(=O)CCO)cc1N1CCC2(CC1)CC2 [Compound 8]")
"< 17.3 mL/min/kg"
>>> experimental_value("O=C(Nc1cc2ccccc2c(N2CCC(F)(F)CC2)n1)c1ccc(NS(=O)(=O)CCO)cc1N1CCC2(CC1)CC2 [Compound 6]")
"< 17.3 mL/min/kg"

Turning now to a further molecule:
molecule O=C(Nc1cc2cccnc2c(N2CCC(F)(F)CC2)n1)c1ccc(NS(=O)(=O)CCO)cc1N1CCC2(CC1)CC2 [Compound 21] , CLint scaled at 1 μM observed: < 17.3 mL/min/kg

====

procedure.text: Pharmacokinetic test in rats
Type: in vivo
condition.notes: rat, plasma, 5 mg/kg; SD rats, PO @5mpk
Known AUC of a selection of compounds

Below are worked cases with known answers.
>>> experimental_value("O=C(Nc1cn2ccnc2c(N2CCOCC2)n1)c1ccc(NS(=O)(=O)CCO)cc1N1CCC2(CC1)CC2 [Compound 11]")
"0.604 µM·h"
>>> experimental_value("O=C(Nc1cc2c(c(N3CCC(F)(F)CC3)n1)COC2)c1ccc(NS(=O)(=O)CCO)cc1N1CCC2(CC1)CC2 [Compound 14]")
"1.92 µM·h"

Turning now to a further compound:
compound O=C(Nc1cc2ccccc2c(N2CCC(F)(F)CC2)n1)c1ccc(NS(=O)(=O)CCO)cc1N1CCC2(CC1)CC2 [Compound 6] , AUC observed: 8.92 µM·h

src = patent US20250382298A1
